The values you see were collected from ChEMBL document CHEMBL1134388.

Target: Gastrin/cholecystokinin type B receptor (Mus musculus) (UniProt P56481)
Sequence (whole entry): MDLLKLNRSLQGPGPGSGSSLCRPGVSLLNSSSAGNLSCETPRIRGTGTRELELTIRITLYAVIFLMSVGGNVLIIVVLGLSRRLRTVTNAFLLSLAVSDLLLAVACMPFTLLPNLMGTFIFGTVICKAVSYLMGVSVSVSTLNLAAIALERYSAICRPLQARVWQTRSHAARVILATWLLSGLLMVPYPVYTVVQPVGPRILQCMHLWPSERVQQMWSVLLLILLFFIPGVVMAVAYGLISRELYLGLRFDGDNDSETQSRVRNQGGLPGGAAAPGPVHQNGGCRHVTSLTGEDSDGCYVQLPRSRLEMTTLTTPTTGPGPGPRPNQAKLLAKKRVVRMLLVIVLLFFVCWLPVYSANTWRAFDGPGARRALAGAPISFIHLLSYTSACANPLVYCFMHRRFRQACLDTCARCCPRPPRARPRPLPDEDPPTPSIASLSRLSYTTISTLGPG
Experiment: Antagonistic activity against CCK2 receptor in mouse cortex assay using [125 I]-BH-CCK-8S
Type: functional, tissue-based
Below is a list of entries, each paired with its recorded pKB value.
Please give the numeric answer without any surrounding text.

Asked: Item `Cn1ccc2cc(C(=O)NCC34CC5CC(CC(C5)C3)C4)c(C(=O)N[C@@H](Cc3ccccc3)C(=O)Nc3cc(C(=O)O)cc(C(=O)O)c3)cc21` has what recorded pKB?
Given back: 8.36

Asked: Moving on to the next compound: `CCCCn1ccc2cc(C(=O)NCC34CC5CC(CC(C5)C3)C4)c(C(=O)N[C@@H](Cc3ccccc3)C(=O)Nc3cc(C(=O)O)cc(C(=O)O)c3)cc21`
Given back: 7.52

Asked: Moving on to the next compound: Cn1ccc2cc(C(=O)N[C@@H](Cc3ccccc3)C(=O)Nc3cc(C(=O)O)cc(C(=O)O)c3)c(C(=O)NCC34CC5CC(CC(C5)C3)C4)cc21 (stereo in doubt; 3)
Given back: 8.42

====

Target: Gastrin/cholecystokinin type B receptor (Rattus norvegicus) (UniProt P30553)
Sequence (P30553 whole entry): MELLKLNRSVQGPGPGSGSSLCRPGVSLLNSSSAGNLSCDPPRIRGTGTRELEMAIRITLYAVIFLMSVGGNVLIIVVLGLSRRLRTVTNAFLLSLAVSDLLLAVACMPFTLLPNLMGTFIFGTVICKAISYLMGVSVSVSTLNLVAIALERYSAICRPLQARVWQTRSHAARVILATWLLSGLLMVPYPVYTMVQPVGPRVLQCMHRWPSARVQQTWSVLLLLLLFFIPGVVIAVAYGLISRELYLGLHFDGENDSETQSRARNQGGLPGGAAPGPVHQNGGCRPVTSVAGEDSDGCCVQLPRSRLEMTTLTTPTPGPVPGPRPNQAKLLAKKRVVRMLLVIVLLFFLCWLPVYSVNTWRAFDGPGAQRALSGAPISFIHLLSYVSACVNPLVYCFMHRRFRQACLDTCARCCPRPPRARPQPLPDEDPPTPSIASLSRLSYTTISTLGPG
Assay: Antagonistic activity against CCK2 receptor in rat stomach
Type: functional, tissue-based
value.type: pKB
Please give the numeric answer without any surrounding text.

Asked: Give Gastrin/cholecystokinin type B receptor (Rattus norvegicus) (UniProt P30553) pKB for `Cn1cnc2cc(C(=O)N[C@@H](Cc3ccccc3)C(=O)Nc3cc(C(=O)O)cc(C(=O)O)c3)c(C(=O)NCC34CC5CC(CC(C5)C3)C4)cc21`
Given back: 8.95

Asked: Moving on to the next compound: `CCCCn1ccc2cc(C(=O)NCC34CC5CC(CC(C5)C3)C4)c(C(=O)N[C@@H](Cc3ccccc3)C(=O)Nc3cc(C(=O)O)cc(C(=O)O)c3)cc21`
Given back: 6.86

Asked: Moving on to the next compound: Cn1ccc2cc(C(=O)N[C@@H](Cc3ccccc3)C(=O)Nc3cc(C(=O)O)cc(C(=O)O)c3)c(C(=O)NCC34CC5CC(CC(C5)C3)C4)cc21 (stereo in doubt; 4)
Given back: 8.99

Asked: Moving on to the next compound: `O=C(O)c1cc(NC(=O)[C@H](Cc2ccccc2)NC(=O)c2cc3cc[nH]c3cc2C(=O)NCC23CC4CC(CC(C4)C2)C3)cc(C(=O)O)c1`
Given back: 9.9

Asked: Moving on to the next compound: `Cn1ccc2cc(C(=O)NCC34CC5CC(CC(C5)C3)C4)c(C(=O)N[C@@H](Cc3ccccc3)C(=O)Nc3cc(C(=O)O)cc(C(=O)O)c3)cc21`
Given back: 8.57
